Hi there, I'd appreciate the recorded pIC50 for every entry that follows.
measurement_target: Bcr/Abl fusion protein (Homo sapiens, UniProt P00519, T315I)
assay_procedure: Inhibition of Bcr-Abl T315I mutant (unknown origin) by ADP-Glo assay
Answers are plain numbers, as −log10 of the molar value.

Here are 3 molecules together with their reported answers.
{"smiles_input": "Nc1n[nH]c2cccc(-c3ccc(C(=O)N4CCN(C(=O)c5cccc(F)c5)CC4)cc3)c12", "pIC50": 5.68}
{"smiles_input": "Nc1n[nH]c2cccc(-c3ccc(C(=O)N4CCN(C(=O)c5ccc(Cl)cc5Cl)CC4)cc3)c12", "pIC50": 6.35}
{"smiles_input": "Nc1n[nH]c2cccc(-c3ccc(C(=O)N4CCN(C(=O)c5cccc(C(F)(F)F)c5)CC4)cc3)c12", "pIC50": 4.02}

Turning now to a further record.
Lookup: Endpoint output: pIC50 of `Nc1n[nH]c2cccc(-c3ccc(C(=O)NCCNC(=O)c4ccc(F)c(F)c4)cc3)c12` . Value?
Found: 4.12

====

Test system: K562
assay_procedure: Cytotoxicity against human K562 cells expressing Bcr-Abl assessed as growth inhibition after 48 hrs by MTT assay
assay_context: K562, 48 h
Hi there, I'd appreciate the recorded IC50 for every entry that follows.
One number for each entry, in µM.

{"smiles_input": "Cc1nc(Nc2ncc(C(=O)Nc3c(C)cccc3Cl)s2)cc(N2CCN(CCO)CC2)n1", "IC50 / µM": 0.45}

Need IC50 for each of these compounds.
1. COc1ccccc1C(=O)NCCNC(=O)c1ccc(-c2cccc3[nH]nc(N)c23)cc1
2. Nc1n[nH]c2cccc(-c3ccc(C(=O)N4CCN(C(=O)c5ccc(Cl)cc5)CC4)cc3)c12
3. Cc1ccccc1C(=O)NCCNC(=O)c1ccc(-c2cccc3[nH]nc(N)c23)cc1
4. Nc1n[nH]c2cccc(-c3ccc(C(=O)NCCNC(=O)c4cccc(C(F)(F)F)c4)cc3)c12
5. COc1ccc(C(=O)NCCNC(=O)c2ccc(-c3cccc4[nH]nc(N)c34)cc2)cc1
6. Cc1ccccc1C(=O)N1CCN(C(=O)c2ccc(-c3cccc4[nH]nc(N)c34)cc2)CC1
7. Nc1n[nH]c2cccc(-c3ccc(C(=O)N4CCN(C(=O)c5cccc(C(F)(F)F)c5)CC4)cc3)c12

Found:
1. 13.9
2. 10.5
3. 8
4. 61.9
5. 258
6. 17.2
7. 18.1
